The values you see were collected from patent US4416877A.

Listed here are compounds together with their documented change in vivo at 200 mg/kg/day.
System: lipid metabolism
Test: Effects of diphosphonates on lipid metabolism in normal rats (serum lipids, α/β cholesterol)
Type: in vivo, male Wistar rats
Conditions: Rattus norvegicus, po, normal rats (N), 200 mg/kg/day p.o.; read-out: Serum Phospholipids (% control values)

Take a look at these entries with their results.
COP(=O)(OC)OC(C(C)(C)c1ccccc1)P(=O)(OC)OC (stereo not drawn) [Compound 20] ... 15%
COP(=O)(OC)OC(c1cc(C)ccc1C)P(=O)(OC)OC (stereo not drawn) [Compound 19] ... < 15%
COP(=O)(OC)OC(c1cccc(Cl)c1)P(=O)(OC)OC (stereo not drawn) [Compound 15] ... < 15%
COP(=O)(OC)C(Cc1ccc(Cl)cc1)P(=O)(OC)OC [Compound 35] ... 51%
COP(=O)(OC)C(O)(c1ccc(C)cc1)P(=O)(OC)OC [Compound 3] ... < 15%
COP(=O)(OC)C(O)(c1ccc(C(=O)c2ccc(Cl)cc2)cc1)P(=O)(OC)OC [Compound 9] ... < 15%
COP(=O)(OC)OC(c1ccc(C)cc1)P(=O)(OC)OC (stereo not drawn) [Compound 18] ... < 15%
COP(=O)(OC)C(O)(c1ccc(Cl)cc1)P(=O)(OC)OC [Compound 4] ... 43%

Consider now this further compound.
Q: # get_value(readout='change in vivo at 200 mg/kg/day', item= CCOP(=O)(OCC)OC(c1ccc(Cl)cc1)P(=O)(OCC)OCC (stereo not drawn) [Compound 24] )
Ans: < 15%

---

Listed here are compounds together with their documented change in vivo at 200 mg/kg/day.
Test system: lipid metabolism
Experiment: Effects of diphosphonates on lipid metabolism in normal rats (serum lipids, α/β cholesterol)
Type: in vivo, male Wistar rats
Details: Rattus norvegicus, po, normal rats (N), 200 mg/kg/day p.o.; read-out: Serum Chol. α/β (% control values)
Return type: number; implicit unit %.

CCOP(=O)(OCC)C(CCCc1ccccc1)P(=O)(OCC)OCC [Compound 29] ... 33
COP(=O)(OC)OC(c1cccc(Cl)c1)P(=O)(OC)OC (stereo not drawn) [Compound 15] ... 69
COP(=O)(OC)C(Cc1ccc(Cl)cc1)P(=O)(OC)OC [Compound 35] ... 75
COP(=O)(OC)OC(C(C)(C)Cc1ccc(Cl)cc1)P(=O)(OC)OC (stereo not drawn) [Compound 22] ... -38
COP(=O)(OC)OC(c1ccc(C(=O)c2ccc(Cl)cc2)cc1)P(=O)(OC)OC (stereo not drawn) [Compound 23] ... 55

Consider now this further compound.
Q: # get_value(readout='change in vivo at 200 mg/kg/day', item= COP(=O)(OC)C(O)(c1ccc(F)cc1)P(=O)(OC)OC [Compound 5] )
Ans: 64

---

Test: Oral LD50 toxicity
Format: in vivo
Conditions: in vivo; oral
Listed here are compounds together with their documented LD50.
For clarity, give the value followed by its unit.

CCOP(=O)(OCC)OC(c1ccc(Cl)cc1)P(=O)(OCC)OCC (centres unmarked) [Compound 24] ... 547 mg/kg

Q: # get_value(readout='LD50', item= COP(=O)(OC)OC(c1ccc(Cl)cc1)P(=O)(OC)OC (centres unmarked) [Compound 16] )
Ans: 3040 mg/kg

---

Test system: tissue cholesterol
Test: Effects in cholesterol fed rats (serum, liver and aorta lipids)
Assay type: in vivo
Details: Rattus norvegicus; cholesterol fed rats (C.F), 200 mg/kg/day; read-out: Liver Total Lipids (% control values)
Listed here are molecules together with their documented change in vivo at 200 mg/kg/day.

COP(=O)(OC)OC(c1ccc(Cl)cc1)P(=O)(OC)OC (stereo not drawn) [Compound 16] ... -32%
COP(=O)(OC)C(Cc1ccc(Cl)cc1)P(=O)(OC)OC [Compound 35] ... < 15%

Q: # get_value(readout='change in vivo at 200 mg/kg/day', item= O=P(O)(O)C(O)(c1ccc(Cl)cc1)P(=O)(O)O [4 Acid] )
Ans: < 15%

Q: # get_value(readout='change in vivo at 200 mg/kg/day', item= COP(=O)(OC)C(O)(c1ccc(C(=O)c2ccc(Cl)cc2)cc1)P(=O)(OC)OC [Compound 9] )
Ans: -25%

Q: # get_value(readout='change in vivo at 200 mg/kg/day', item= CCOP(=O)(OCC)C(Cc1ccc(Cl)cc1)P(=O)(OCC)OCC [Compound 27] )
Ans: < 15%

Q: # get_value(readout='change in vivo at 200 mg/kg/day', item= COP(=O)(OC)C(O)(c1ccc(Cl)cc1)P(=O)(OC)OC [Compound 4] )
Ans: -31%

Q: # get_value(readout='change in vivo at 200 mg/kg/day', item= COP(=O)(OC)OC(C(C)(C)c1ccc(Cl)cc1)P(=O)(OC)OC (stereo not drawn) [Compound 21] )
Ans: -36%

Q: # get_value(readout='change in vivo at 200 mg/kg/day', item= COP(=O)(OC)OC(c1ccc(C)cc1)P(=O)(OC)OC (stereo not drawn) [Compound 18] )
Ans: < 15%

Q: # get_value(readout='change in vivo at 200 mg/kg/day', item= COP(=O)(OC)C(O)(C(C)(C)Oc1ccc(Cl)cc1)P(=O)(OC)OC [Compound 7] )
Ans: < 15%

---

Listed here are compounds together with their documented Serum Triglycerides (% control values).
Test system: lipid metabolism
Assay: Effects of diphosphonates on lipid metabolism in normal rats (serum lipids, α/β cholesterol)
Assay type: in vivo, male Wistar rats
Conditions: normal rats (N), 200 mg/kg/day p.o.

COP(=O)(OC)C(O)(C(C)(C)C)P(=O)(OC)OC ... +24%

Q: # get_value(readout='Serum Triglycerides (% control values)', item= COP(=O)(OC)OC(c1ccccc1)P(=O)(OC)OC (stereo not drawn) )
Ans: +32%

---

Listed here are molecules together with their documented change in vivo at 200 mg/kg/day.
System: lipid metabolism
Test: Effects of diphosphonates on lipid metabolism in normal rats (serum lipids, α/β cholesterol)
Format: in vivo, male Wistar rats
Conditions: Rattus norvegicus, po, normal rats (N), 200 mg/kg/day p.o.; read-out: Serum Chol. α/β (% control values)
Return type: number; implicit unit %.

COP(=O)(OC)OC(C(C)(C)c1ccccc1)P(=O)(OC)OC (stereo not drawn) ... 25
COP(=O)(OC)OC(c1ccccc1Cl)P(=O)(OC)OC (stereo not drawn) ... 34
COP(=O)(OC)OC(c1ccc(Cl)cc1)P(=O)(OC)OC (stereo not drawn) ... 121

Q: Requested read-out change in vivo at 200 mg/kg/day, target or system lipid metabolism, entry COP(=O)(OC)OC(c1ccc(F)cc1)P(=O)(OC)OC (stereo not drawn)
Ans: 81

Q: Requested read-out change in vivo at 200 mg/kg/day, target or system lipid metabolism, entry COP(=O)(OC)C(CCCc1ccccc1)P(=O)(OC)OC
Ans: 49

Q: Requested read-out change in vivo at 200 mg/kg/day, target or system lipid metabolism, entry COP(=O)(OC)OC(c1cc(C)ccc1C)P(=O)(OC)OC (stereo not drawn)
Ans: 15
